- tested_on: Serine/threonine-protein kinase Chk2 (Homo sapiens)
- Sequence (O96017 whole entry): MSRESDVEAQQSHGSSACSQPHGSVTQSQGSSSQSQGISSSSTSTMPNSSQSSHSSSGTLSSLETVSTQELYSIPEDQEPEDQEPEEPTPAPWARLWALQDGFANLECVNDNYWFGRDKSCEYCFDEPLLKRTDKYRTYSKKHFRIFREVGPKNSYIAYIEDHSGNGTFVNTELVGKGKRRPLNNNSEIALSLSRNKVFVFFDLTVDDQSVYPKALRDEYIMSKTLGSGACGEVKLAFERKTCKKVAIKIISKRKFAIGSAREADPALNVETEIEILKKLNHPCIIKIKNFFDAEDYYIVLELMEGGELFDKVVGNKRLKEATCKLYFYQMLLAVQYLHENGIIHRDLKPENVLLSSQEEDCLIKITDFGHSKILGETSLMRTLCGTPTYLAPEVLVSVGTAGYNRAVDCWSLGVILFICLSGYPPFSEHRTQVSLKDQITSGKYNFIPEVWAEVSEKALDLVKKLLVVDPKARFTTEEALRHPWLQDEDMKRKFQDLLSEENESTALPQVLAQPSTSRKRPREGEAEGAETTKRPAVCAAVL
The compounds listed here are annotated with their ΔTm.
measure_name: ΔTm (°C)

compound=Cc1[nH]c(/C=C2\C(=O)Nc3ccc(S(=O)(=O)N(C)c4cccc(Cl)c4)cc32)c(C)c1C(=O)N1CCN(C)CC1 measure_name=ΔTm experimental_result=2.9
compound=NS(=O)(=O)c1ccc(Nc2nc(OCC3CCCCC3)c3nc[nH]c3n2)cc1 measure_name=ΔTm experimental_result=2.5
compound=NCCNc1ncc(C(N)=O)c(Nc2cccc(C(F)(F)F)c2)n1 measure_name=ΔTm experimental_result=6.6
compound="CC[C@H](CO)Nc1nc(NCc2ccccc2)c2ncn(C(C)C)c2n1 [SELICICLIB]" measure_name=ΔTm experimental_result=0
compound=CC(C)N(CCO)c1nc(Nc2cccc(Cl)c2)c2ncn(C(C)C)c2n1 measure_name=ΔTm experimental_result=0.6

---

- tested_on: 5'-AMP-activated protein kinase catalytic subunit alpha-2 (Homo sapiens) (UniProt P54646)
- Sequence (P54646 whole entry, looked up): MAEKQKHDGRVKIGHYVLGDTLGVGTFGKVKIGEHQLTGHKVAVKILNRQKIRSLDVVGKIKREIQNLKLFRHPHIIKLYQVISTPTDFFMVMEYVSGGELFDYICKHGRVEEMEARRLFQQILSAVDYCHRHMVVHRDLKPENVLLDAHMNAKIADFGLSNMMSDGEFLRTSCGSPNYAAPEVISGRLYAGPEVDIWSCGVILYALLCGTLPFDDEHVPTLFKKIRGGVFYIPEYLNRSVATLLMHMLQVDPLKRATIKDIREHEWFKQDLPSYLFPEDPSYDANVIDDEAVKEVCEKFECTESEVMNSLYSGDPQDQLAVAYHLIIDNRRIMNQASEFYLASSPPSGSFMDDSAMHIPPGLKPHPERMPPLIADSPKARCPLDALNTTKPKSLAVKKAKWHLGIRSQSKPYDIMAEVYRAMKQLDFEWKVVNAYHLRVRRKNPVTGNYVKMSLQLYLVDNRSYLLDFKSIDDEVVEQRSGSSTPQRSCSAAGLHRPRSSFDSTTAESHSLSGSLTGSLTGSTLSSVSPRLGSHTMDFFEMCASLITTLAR
Rule: ΔTm below 0.2 °C gives satisfied. Equal to or above 0.2 °C gives not satisfied.

compound=Cc1cc2ncc(-c3ccccc3)nc2cc1C class_name=satisfied
compound=Cc1cncc2cccc(S(=O)(=O)N3CCCNC[C@@H]3C)c12 class_name="not satisfied"
compound=OC[C@H]1O[C@@H](n2cnc3cc(Cl)c(Cl)cc32)[C@H](O)[C@@H]1O class_name=satisfied
compound="Cc1c2ccncc2c(C)c2c1[nH]c1ccccc12 [ELLIPTECINE]" class_name="not satisfied"
compound=NS(=O)(=O)c1ccc(Nc2nc(OCC3CCCCC3)c3nc[nH]c3n2)cc1 class_name="not satisfied"
compound=Nc1nc(Nc2ccc(S(N)(=O)=O)cc2)nn1C(=S)Nc1c(F)cccc1F class_name="not satisfied"
compound=Oc1cccc(-c2nc(N3CCOCC3)c3oc4ncccc4c3n2)c1 class_name=satisfied
compound="NC1=NC(=O)/C(=C2\\CCNC(=O)c3[nH]c(Br)cc32)N1 [HYMENIALDISINE]" class_name="not satisfied"
compound=COc1nccc(-c2c(-c3ccc(F)cc3)ncn2[C@H]2CC[C@H](O)CC2)n1 class_name="not satisfied"
compound=N#C/C(=C\c1ccc(O)c(O)c1)C(=O)Nc1ccccc1 class_name=satisfied
compound=CN1CCc2[nH]c(=S)c(C#N)c(-c3cccs3)c2C1 class_name="not satisfied"
compound=COc1ccc(Cl)cc1NC(=O)Nc1cc(C)nc2ccccc12 class_name=satisfied
compound="CCCCc1c(-c2ccc(O)cc2)[nH]c2nccnc12 [ALOISINE A]" class_name="not satisfied"
compound=CCOC(=O)c1cnc2oc3ccc(O)cc3c2c1-c1ccccc1 class_name=satisfied
compound=O=Nc1c(-c2c(O)[nH]c3ccccc23)[nH]c2ccccc12 class_name="not satisfied"
compound="COc1cc(/C=C/C(=O)CC(=O)/C=C/c2ccc(O)c(OC)c2)ccc1O [CURCUMIN]" class_name=satisfied
compound=Cn1cc(C2=C(c3cn(CCCN)c4ccccc34)C(=O)NC2=O)c2ccccc21 class_name="not satisfied"
compound="CN(C)CC1CCn2c(c(C3=C(c4c[nH]c5ccccc45)C(=O)NC3=O)c3ccccc32)C1 (configuration not stated)" class_name=satisfied
compound=N#C/C(=C\c1ccc(O)c(O)c1)C(=O)NCc1ccccc1 class_name=satisfied
compound=COc1ccc(CNc2nc(N(CCO)CCO)nc3c2ncn3C(C)C)cc1 class_name="not satisfied"

---

- tested_on: 5'-AMP-activated protein kinase catalytic subunit alpha-2 (Homo sapiens) (UniProt P54646)
Class (required): determined from ΔTm; valid ranges are lo: < -0.1 °C; mid: ≥ -0.1 °C and < 1 °C; hi: ≥ 1 °C

compound=NCCNc1ncc(C(N)=O)c(Nc2cccc(C(F)(F)F)c2)n1 class_name=mid
compound=CC(C)c1cc(/C=C(\C#N)C(=O)NCCCc2ccccc2)cc(C(C)C)c1O class_name=lo
compound=O=C1Nc2ccccc2/C1=C1/Nc2ccccc2/C1=N\O class_name=hi
compound="O=c1c2ccccc2[nH]c(=S)n1CCN1CCC(=C(c2ccc(F)cc2)c2ccc(F)cc2)CC1 [DIACYLGLYCEROL KINASE INHIBITOR II]" class_name=lo
compound=NCCNS(=O)(=O)c1cccc2c(Cl)cccc12 class_name=lo
compound="C[S+]([O-])c1ccc(CSc2nc(-c3ccc(F)cc3)c(-c3ccncc3)[nH]2)cc1 (stereo unspecified)" class_name=lo
compound=CCOc1cc(/C=C(\C#N)C(N)=O)cc(CSc2ccccc2)c1O class_name=mid
compound=O=c1cc(-c2ccc(O)cc2)oc2cc(O)cc(O)c12 class_name=hi
compound=CN[C@@H]1CC2O[C@@](C)([C@@H]1OC)n1c3ccccc3c3c4c(c5c6ccccc6n2c5c31)C(=O)NC4 class_name=hi
compound=C/C(O)=C(\C#N)C(=O)Nc1cc(Br)ccc1Br class_name=mid
compound="COC(=O)[C@]1(O)C[C@@H]2O[C@@]1(C)n1c3ccccc3c3c4c(c5c6ccccc6n2c5c31)C(=O)NC4 (single isomer, unassigned)" class_name=hi
compound=N#C/C(=C1/Nc2ccccc2S1)c1ccnc(NCCc2cccnc2)n1 class_name=hi
compound="CCCNC(=O)Nc1ccc(Oc2ncnc3cc(OC)c(OC)cc23)cc1Cl [KRN-633]" class_name=hi
compound="O=C(O)c1cc(N(Cc2ccccc2O)Cc2cc(O)ccc2O)ccc1O [LAVENDUSTIN A]" class_name=lo
compound=Ic1cccc(CSc2nnc(-c3ccncc3)o2)c1 class_name=lo
compound=Nc1cc2ncnc(Nc3cccc(Br)c3)c2cc1N class_name=lo
compound=Cn1cc(/C=C2/C(=O)Nc3ccc(S(N)(=O)=O)cc32)c2ccccc21 class_name=hi
compound="COc1cc(C[C@H]2C(=O)OC[C@@H]2Cc2ccc(OC)c(OC)c2)ccc1O [ARCTIGENIN]" class_name=lo
compound="CN(C)CCCn1cc(C2=C(c3c[nH]c4ccccc34)C(=O)NC2=O)c2ccccc21 [GF-109203]" class_name=hi
compound=O=C(O)/C=C/c1cc(CO)ccc1CO class_name=mid
compound="CN(C)c1ncnc2nc[nH]c12 [DIMETHYLADENINE]" class_name=lo
compound="C[C@@H]1C[C@H]2O[C@@H]2/C=C\\C=C\\C(=O)Cc2c(Cl)c(O)cc(O)c2C(=O)O1 [RADICICOL]" class_name=lo
compound="O=C1c2ccccc2-[n+]2ccc3c([nH]c4ccccc43)c21 [FASCAPLYSIN CHLORIDE]" class_name=mid
compound=Cc1ccc(NC2=CC(=O)c3sc(C)nc3C2=O)cc1 class_name=mid
compound=CN(c1cccnc1)c1cc2c(Nc3ccc(F)c(Cl)c3)c(C#N)cnc2cn1 class_name=hi
compound="O=c1c(O)c(-c2ccc(O)c(O)c2)oc2cc(O)cc(O)c12 [QUERCETIN]" class_name=hi
compound=O=C1Nc2ccc(S(=O)(=O)O)cc2/C1=C1/Nc2ccccc2/C1=N\O class_name=hi
compound=CC(C)(C)n1nc(-c2ccc(Cl)cc2)c2c(N)ncnc21 class_name=mid
compound=Cc1[nH]c(/C=C2\C(=O)Nc3ccc(S(=O)(=O)N(C)c4cccc(Cl)c4)cc32)c(C)c1C(=O)N1CCN(C)CC1 class_name=hi
compound=COc1cc2ncnc(Nc3cccc(Br)c3)c2cc1OC class_name=lo
compound="O=C1Cc2c([nH]c3ccc(Br)cc23)-c2ccccc2N1 [KENPAULLONE]" class_name=hi
compound=O=c1sn(Cc2ccccc2)c(=S)n1Cc1ccccc1 class_name=lo
compound=O=C1NC(=O)C(c2cn(CCCn3ccnc3)c3ccccc23)=C1Nc1ccccc1 class_name=mid
compound=CCOc1cc2ncnc(Nc3cccc(Br)c3)c2cc1OCC class_name=mid
compound=COc1ccc(COc2ccc(Cc3cnc(N)nc3N)cc2OC)cc1 class_name=mid

---

- tested_on: Casein kinase I isoform gamma-1 (Homo sapiens) (UniProt Q9HCP0)
- Sequence (Q9HCP0 whole entry, looked up, canonical isoform): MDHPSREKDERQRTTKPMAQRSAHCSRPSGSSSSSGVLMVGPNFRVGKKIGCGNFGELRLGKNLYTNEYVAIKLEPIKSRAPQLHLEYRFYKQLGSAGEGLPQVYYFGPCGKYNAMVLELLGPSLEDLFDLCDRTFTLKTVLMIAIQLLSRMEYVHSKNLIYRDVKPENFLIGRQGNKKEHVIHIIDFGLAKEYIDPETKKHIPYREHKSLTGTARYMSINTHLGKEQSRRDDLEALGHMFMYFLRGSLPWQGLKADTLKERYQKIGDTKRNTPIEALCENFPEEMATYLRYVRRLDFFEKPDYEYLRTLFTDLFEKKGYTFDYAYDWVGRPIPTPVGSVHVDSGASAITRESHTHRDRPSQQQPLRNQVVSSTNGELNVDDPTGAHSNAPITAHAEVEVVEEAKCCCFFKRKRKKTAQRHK
Record 1 (yes) whenever ΔTm is at 0.5 °C or higher; record 0 (no) when lower.

compound="O=c1c2ccccc2[nH]c(=S)n1CCN1CCC(=C(c2ccc(F)cc2)c2ccc(F)cc2)CC1 [DIACYLGLYCEROL KINASE INHIBITOR II]" class_name="0 (no)"
compound="COc1ccc2c(c[n+](C)c3c4cc5c(cc4ccc23)OCO5)c1OC [CHELERYTHRINE CHLORIDE]" class_name="0 (no)"
compound=COc1cc2ncnc(Nc3cccc(Br)c3)c2cc1OC class_name="1 (yes)"
compound="C[C@@H]1C[C@H]2O[C@@H]2/C=C\\C=C\\C(=O)Cc2c(Cl)c(O)cc(O)c2C(=O)O1 [RADICICOL]" class_name="0 (no)"
compound=CC(C)(C)c1cc(C=C2C(=O)C=CC2=O)cc(C(C)(C)C)c1O class_name="1 (yes)"
compound=O=C1Nc2ccccc2/C1=C\c1ccc[nH]1 class_name="1 (yes)"
compound="CSc1nc(-c2ccc(F)cc2)c(-c2ccnc(NC(C)c3ccccc3)c2)[nH]1 (racemic)" class_name="1 (yes)"

---

- tested_on: Mitogen-activated protein kinase 3 (Homo sapiens)
- Sequence (P27361 whole entry): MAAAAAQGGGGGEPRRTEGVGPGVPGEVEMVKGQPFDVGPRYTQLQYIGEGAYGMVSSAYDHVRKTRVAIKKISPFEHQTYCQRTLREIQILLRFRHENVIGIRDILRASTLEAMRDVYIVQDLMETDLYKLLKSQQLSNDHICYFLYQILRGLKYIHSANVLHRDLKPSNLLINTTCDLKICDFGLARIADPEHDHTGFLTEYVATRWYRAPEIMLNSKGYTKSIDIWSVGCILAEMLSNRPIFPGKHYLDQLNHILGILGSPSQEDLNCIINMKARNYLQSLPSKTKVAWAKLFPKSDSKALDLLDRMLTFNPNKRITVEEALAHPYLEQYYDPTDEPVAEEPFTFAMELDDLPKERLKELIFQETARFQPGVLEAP
Recorded measurements of ΔTm, one per entry
measure_name: ΔTm (°C)

compound=CCOc1cc2ncnc(Nc3cccc(Br)c3)c2cc1OCC tested_on="Mitogen-activated protein kinase 3 (Homo sapiens)" unit_spec=°C experimental_result=0.7
compound="N#CC(C#N)=Cc1ccc(O)c(O)c1 [TYRPHOSTIN 23]" tested_on="Mitogen-activated protein kinase 3 (Homo sapiens)" unit_spec=°C experimental_result=0.3
compound=Cc1nc(Nc2ncc(C(=O)Nc3c(C)cccc3Cl)s2)cc(N2CCN(CCO)CC2)n1 tested_on="Mitogen-activated protein kinase 3 (Homo sapiens)" unit_spec=°C experimental_result=0
compound="Cl.Cn1cc(C2=C(c3ccc4cc5n(c4c3)CCC(CN)C5)C(=O)NC2=O)c2ccccc21 (configuration not stated)" tested_on="Mitogen-activated protein kinase 3 (Homo sapiens)" unit_spec=°C experimental_result=-0.5
compound=CC(C)(C)n1nc(-c2ccc(Cl)cc2)c2c(N)ncnc21 tested_on="Mitogen-activated protein kinase 3 (Homo sapiens)" unit_spec=°C experimental_result=0
compound="COc1cc(C[C@H]2C(=O)OC[C@@H]2Cc2ccc(OC)c(OC)c2)ccc1O [ARCTIGENIN]" tested_on="Mitogen-activated protein kinase 3 (Homo sapiens)" unit_spec=°C experimental_result=-0.4
compound=CN(c1cccnc1)c1cc2c(Nc3ccc(F)c(Cl)c3)c(C#N)cnc2cn1 tested_on="Mitogen-activated protein kinase 3 (Homo sapiens)" unit_spec=°C experimental_result=-1.9
compound=COc1ccc(COc2ccc(Cc3cnc(N)nc3N)cc2OC)cc1 tested_on="Mitogen-activated protein kinase 3 (Homo sapiens)" unit_spec=°C experimental_result=0.3
compound="Nc1n[nH]c2nc3ccccc3nc12 [QUINOXALINE1]" tested_on="Mitogen-activated protein kinase 3 (Homo sapiens)" unit_spec=°C experimental_result=0.3
compound=Ic1cccc(CSc2nnc(-c3ccncc3)o2)c1 tested_on="Mitogen-activated protein kinase 3 (Homo sapiens)" unit_spec=°C experimental_result=0.5
compound=Nc1cc2ncnc(Nc3cccc(Br)c3)c2cc1N tested_on="Mitogen-activated protein kinase 3 (Homo sapiens)" unit_spec=°C experimental_result=0.4
compound=O=C(O)/C=C/c1cc(CO)ccc1CO tested_on="Mitogen-activated protein kinase 3 (Homo sapiens)" unit_spec=°C experimental_result=0.2

Data origin: ChEMBL document CHEMBL1145498
